Catalogue of IC50 values
Molecular target: GID4 (Uniprot ID: Q81VV7, residues 124-289) (Homo sapiens)
Construct: GID4 (Uniprot ID: Q81VV7, residues 124-289)
Sequence (Q8IVV7 124-289): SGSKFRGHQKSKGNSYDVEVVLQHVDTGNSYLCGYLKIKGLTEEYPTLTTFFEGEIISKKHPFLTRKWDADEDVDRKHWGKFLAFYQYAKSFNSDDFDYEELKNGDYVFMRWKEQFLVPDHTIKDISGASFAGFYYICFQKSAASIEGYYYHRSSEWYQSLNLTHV
Test: GID4 competitive binding assay (AlphaScreen, GID4/degron peptide PGLW)
Details: 24 nM GID4, 48 nM biotinylated degron peptide PGLW, 4° C., read-out: IC50 (Inhibition of GID4/Degron binding by test compounds)

Example entries and their recorded answers appear below.
compound="CC(C)c1cc(N2CCC(c3cnc4ccccn34)C2)nc(N)n1 (centres unmarked)" reported_result="0.5 to 5 µM"
compound="Nc1cc(N2CCCC(n3ncc4ccccc43)C2)nc(N)n1 (centres unmarked)" reported_result="> 5 µM"
compound="Nc1nc(NC2CC2)cc(N2CCO[C@H](c3ccccc3Br)C2)n1 (stereo in doubt)" reported_result="> 5 µM"
compound="CC(C)c1cc(N2CCNC(c3nnc4ccccn34)C2)nc(N)n1 (centres unmarked)" reported_result="> 5 µM"
compound="CC(C)c1cc(N2CCCC(c3cnc4ccccn34)C2)c2cc[nH]c2n1 (centres unmarked)" reported_result="< 0.5 µM"
compound=CN(C)CCCNC(=O)c1ccc2c(-c3ccc4ccnc(N)c4c3)csc2c1 reported_result="0.5 to 5 µM"

Given item Nc1nc(N2CCO[C@@H](c3ccccc3Br)C2)c2cc[nH]c2n1 (racemic) , the value recorded as its IC50 is 0.5 to 5 µM

Field IC50 (entry CNc1cc(N2CCN[C@H](c3ccccc3Br)C2)nc(NC)n1 (stereo in doubt) ) reads < 0.5 µM
